Values from the RNAGym collection of RNA variant scans (doi:10.1093/nar/gkz1192)

B1: CPEB3 Ribozyme (parent)
chain: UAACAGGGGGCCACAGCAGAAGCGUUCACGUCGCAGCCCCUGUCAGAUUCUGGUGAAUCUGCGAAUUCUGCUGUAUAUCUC

- Variants of: B1
- experiment.notes: self-cleavage, relative activity (ratio to wild type); higher = more cleavage; in vitro, sequencing
outcome.measure: self-cleavage
In your answer, state the number alone without any accompanying words.

[in] Hello, please tell me recorded self-cleavage for this one: U25G U51C
[out] 0.4

[in] Hello, please tell me recorded self-cleavage for this one: A28U G52A
[out] 0.83

[in] Hello, please tell me recorded self-cleavage for this one: A5G U25A
[out] 0.42

[in] Hello, please tell me recorded self-cleavage for this one: A45G A57C
[out] 0.24

[in] Hello, please tell me recorded self-cleavage for this one: C34U U67A
[out] 0.42

[in] Hello, please tell me recorded self-cleavage for this one: C39G U41G
[out] 0.13

[in] Hello, please tell me recorded self-cleavage for this one: A5C U51C
[out] 0.6

[in] Hello, please tell me recorded self-cleavage for this one: G73A
[out] 1.27

[in] Hello, please tell me recorded self-cleavage for this one: A2G C29U
[out] 0.24

[in] Hello, please tell me recorded self-cleavage for this one: A64U G73A
[out] 0.98

[in] Hello, please tell me recorded self-cleavage for this one: U31A A35C
[out] 0.27

[in] Hello, please tell me recorded self-cleavage for this one: U48G A57G
[out] 0.4

[in] Hello, please tell me recorded self-cleavage for this one: A21G U51C
[out] 0.6

[in] Hello, please tell me recorded self-cleavage for this one: U54C A56G
[out] 0.64

[in] Hello, please tell me recorded self-cleavage for this one: A13C U76C
[out] 0.75

[in] Hello, please tell me recorded self-cleavage for this one: U26C C81A
[out] 0.63

[in] Hello, please tell me recorded self-cleavage for this one: G22C U25C
[out] 0.45

[in] Hello, please tell me recorded self-cleavage for this one: U31C C44U
[out] 0.26

[in] Hello, please tell me recorded self-cleavage for this one: C34U A35G
[out] 0.36

[in] Hello, please tell me recorded self-cleavage for this one: U26C C38G
[out] 0.09

[in] Hello, please tell me recorded self-cleavage for this one: G61U U80C
[out] 0.65

[in] Hello, please tell me recorded self-cleavage for this one: U43C U76G
[out] 0.69

[in] Hello, please tell me recorded self-cleavage for this one: U54C C68A
[out] 0.43

[in] Hello, please tell me recorded self-cleavage for this one: G42A A65U
[out] 0.3

[in] Hello, please tell me recorded self-cleavage for this one: G19U A57G
[out] 0.48

[in] Hello, please tell me recorded self-cleavage for this one: A3G G22A
[out] 0.29

[in] Hello, please tell me recorded self-cleavage for this one: U51C A57U
[out] 0.44

[in] Hello, please tell me recorded self-cleavage for this one: A15U G42A
[out] 0.61

[in] Hello, please tell me recorded self-cleavage for this one: G33U G46A
[out] 0.44

[in] Hello, please tell me recorded self-cleavage for this one: U1A A56U
[out] 0.61

[in] Hello, please tell me recorded self-cleavage for this one: C11U U49C
[out] 0.24

[in] Hello, please tell me recorded self-cleavage for this one: A57C A64U
[out] 0.44

[in] Hello, please tell me recorded self-cleavage for this one: A21C A35G
[out] 0.39

[in] Hello, please tell me recorded self-cleavage for this one: U41G U76C
[out] 0.27

[in] Hello, please tell me recorded self-cleavage for this one: A35C G61A
[out] 0.41
